// reported self-cleavage for each item listed
B1: OR4K15 (parent)
chain: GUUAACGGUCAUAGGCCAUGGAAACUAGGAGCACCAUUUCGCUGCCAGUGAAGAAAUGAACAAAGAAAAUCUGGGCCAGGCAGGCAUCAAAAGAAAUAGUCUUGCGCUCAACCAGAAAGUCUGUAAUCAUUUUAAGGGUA

Variants of: B1
Experiment: self-cleavage, relative activity (ratio to wild type); higher = more cleavage; in vitro, sequencing; the parent is a self-cleaving ribozyme

change="U131C G137U" measured_value=1.54
change="U26C U87C" measured_value=0.37

Tell us which self-cleavage value is on record for G75C A117G 0.15

Tell us which self-cleavage value is on record for A27G A111G 0.03

Tell us which self-cleavage value is on record for A5U G138A 1.71

Tell us which self-cleavage value is on record for A47U G106U 0.01

Tell us which self-cleavage value is on record for U131A G137U 0.48

Reference source for all entries: the RNAGym collection of RNA variant scans (doi:10.7554/elife.90254)
